All figures here come from the Human Domainome abundance scans (Beltran et al. 2025).

B1: Transitional endoplasmic reticulum ATPase, residues 26 to 106; numbered along this chain, P55072 (parent)
chain: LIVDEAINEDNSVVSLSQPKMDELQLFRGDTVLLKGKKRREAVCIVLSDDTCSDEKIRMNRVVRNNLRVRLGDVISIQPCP

Variants of: B1
Assay Text: abundance fitness (aPCA) (normalised: wild type 0, dead -1); higher = more abundant; growth selection in yeast, the domain comes from the species named
Stated Conditions: Homo sapiens
Readout Name: abundance fitness
Note: the reply should be a number with no unit written.

abundance fitness for N65G is -0.066

abundance fitness for L1A is -0.126

abundance fitness for V3T is -0.432

abundance fitness for I2Q is -0.164

abundance fitness for P81A is -0.042

abundance fitness for S48Q is -0.106

abundance fitness for V62H is 0.038

abundance fitness for G36M is -0.309

abundance fitness for R64V is -0.321

abundance fitness for K20H is -0.389

abundance fitness for R70Y is 0.005

abundance fitness for L71D is -0.086

abundance fitness for R64P is -1.06

abundance fitness for Q18K is -0.037

abundance fitness for S76H is 0

abundance fitness for R61C is 0.005

abundance fitness for D73L is -0.922

abundance fitness for R64F is -0.212

abundance fitness for N65R is -0.044

abundance fitness for D73S is -0.012

abundance fitness for D4W is -0.091

abundance fitness for I77F is -0.259

abundance fitness for C44Y is -0.091

abundance fitness for L47K is -0.036

abundance fitness for R40F is -0.006

abundance fitness for N65D is 0.017

abundance fitness for A42I is -0.258

abundance fitness for C80M is 0.055

abundance fitness for S12T is 0.082

abundance fitness for R70N is -0.101

abundance fitness for L26Q is -0.763

abundance fitness for R61I is -0.026

abundance fitness for T51P is -0.306

abundance fitness for R40I is -0.046

abundance fitness for R70A is 0.043
